- Tested on: Mycosphaerella graminicola; anamorph: Septoria tritici (SEPTTR)
- protocol.notes: Fungicidal activity: leaf blotch of wheat (SEPTTR), wheat seedlings sprayed and inoculated
- Format: in vivo
- condition.parameters: 3 Day Curative; 50 ppm; wheat plants (variety Yuma)
experimental.readout: SEPTTR 3DC (% disease control rating)

> print(dat)
                                   molecule                               test.target     reading
1  CCOC(=O)c1nnnn1CC(O)(c1ccc(F)cc1F)C(F)(F)c1ccc(Oc2ccc(C#N)cc2)cn1 (stereo not shown) [—CO2Et]  Mycosphaerella graminicola; anamorph: Septoria tritici (SEPTTR)  A (80-100)
2  CC(=O)c1nnnn1CC(O)(c1ccc(F)cc1F)C(F)(F)c1ccc(Oc2ccc(C#N)cc2)cn1 (stereo not shown) [—C(O)Me]  Mycosphaerella graminicola; anamorph: Septoria tritici (SEPTTR)  A (80-100)
